Test system: T. gondii Pru strain (type II) tachyzoites
Experiment: In vitro growth inhibition of red fluorescent tachyzoites, Pru strain
Type: cell-based, Toxoplasma gondii
Conditions: tachyzoite growth
recorded metric: pEC50
Reminder that pEC50 means the negative base-10 logarithm of the concentration expressed in mol/L.

pEC50 reported for this compound `O=C1C(O)=C([C@H]2CC[C@H](c3ccc(Cl)cc3)CC2)C(=O)c2ccccc21` : 8.38

###

Test system: T. gondii ATQ^R R4
Test: In vitro growth inhibition, atovaquone resistant strain R4
Assay type: cell-based
Settings: Toxoplasma gondii, read-out: EC50 ATQ^R R4, atovaquone resistant strain R4
recorded metric: EC50 (µM)
Kindly answer with a numeric value in µM, unit omitted.

chem smiles | value observed
CCc1nc(N)nc(N)c1-c1ccc(Cl)cc1 | 0.0221

EC50 reported for this compound `O=C1C(O)=C([C@H]2CC[C@H](c3ccc(Cl)cc3)CC2)C(=O)c2ccccc21` : 1.9
